Consider the following molecules and their measured IC50 readings.
Tested on: E. coli transcription/translation (bacterial protein synthesis, E. coli S30 extract)
Assay: In vitro inhibition of E. coli transcription and translation assay (TT), cell-free
Type: biochemical
Conditions: cell-free E. coli S30 extract

Consider the worked cases shown below.
>  <molecule>
CS[C@H]1O[C@H]([C@H](NC(=O)[C@@H]2CC[C@H](CCCC(F)F)CCN2)[C@H](C)Cl)[C@H](O)[C@H](O)[C@H]1O [Example 11′]

>  <observed result>
250 nM

$$$$
>  <molecule>
CS[C@H]1O[C@H]([C@H](NC(=O)C2CC[C@H](CCCCO)CCN2)[C@H](C)Cl)[C@H](O)[C@H](O)[C@H]1O (stereo in doubt) [Example 1′]

>  <observed result>
530 nM

$$$$

// below: IC50 requested for another molecule
Task: Output measured IC50 for this item: CS[C@H]1O[C@H]([C@H](NC(=O)C2CC[C@H](CCCCF)CCN2)[C@H](C)Cl)[C@H](O)[C@H](O)[C@H]1O (stereo in doubt) [Example 3′]
Result: 190 nM

* * *

As shown below, each of these molecules has a reported MIC value.
System: Haemophilus influenzae
Experiment: Susceptibility testing, NCCLS microdilution MIC
Assay type: cell-based
Conditions: Haemophilus influenzae, ATCC31517; H. influenzae ATCC 31517; NCCLS microdilution; read-out: MIC H. influenzae
Please answer using a numeric value trailed by its unit.

>  <molecule>
CCCC1CCN[C@H](C(=O)N[C@@H]([C@H]2O[C@H](SC)[C@H](O)[C@@H](O)[C@H]2O)[C@H](C)Cl)CC1 (stereo partly drawn) [Example 47]

>  <study system>
Haemophilus influenzae

>  <MIC>
0.5 µg/mL

$$$$
>  <molecule>
CCC[C@@H]1C[C@@H](C(=O)N[C@@H]([C@H]2O[C@H](SC)[C@H](O)[C@@H](O)[C@H]2O)[C@H](C)Cl)N(C)C1 [clindamycin, reference compound]

>  <study system>
Haemophilus influenzae

>  <MIC>
8 µg/mL

$$$$
>  <molecule>
CCCCC1CCN[C@H](C(=O)N[C@@H]([C@H]2O[C@H](SC)[C@H](O)[C@@H](O)[C@H]2O)[C@H](C)Cl)CC1 (stereo partly drawn) [Example 144]

>  <study system>
Haemophilus influenzae

>  <MIC>
0.5 µg/mL

$$$$
>  <molecule>
CCCCCC1CCN[C@H](C(=O)N[C@@H]([C@H]2O[C@H](SC)[C@H](O)[C@@H](O)[C@H]2O)[C@H](C)Cl)CC1 (stereo partly drawn) [Example 145]

>  <study system>
Haemophilus influenzae

>  <MIC>
0.5 µg/mL

$$$$

Task: Complete the entry with MIC for CS[C@H]1OC([C@H](NC(=O)[C@@H]2C[C@H](CC3CCC3)CCN2)[C@H](C)Cl)[C@H](O)[C@H](O)[C@H]1O (stereo in doubt) [Example 82]
Result: 2 µg/mL

Task: Consider the molecule CS[C@H]1OC([C@H](NC(=O)[C@@H]2C[C@H](CCC3CCC3)CCN2)[C@H](C)Cl)[C@H](O)[C@H](O)[C@H]1O (stereo in doubt) [Example 81] . State its measured MIC.
Result: 2 µg/mL

* * *

Test system: Enterococcus faecalis
Assay: Susceptibility testing, NCCLS microdilution MIC
Format: cell-based
Settings: Enterococcus faecalis; Example A; strain ATCC29212; 16-20 h at 35° C.; read-out: MIC against Enterococcus faecalis strain ATCC29212
parameter: MIC

>  <compound>
CCCC1CCN[C@H](C(=O)N[C@@H]([C@H]2O[C@H](SC)[C@H](O)[C@@H](O)[C@H]2O)[C@H](C)Cl)CC1 (stereo partly drawn) [Example 47]

>  <MIC>
≤ 0.125 µg/mL

$$$$
>  <compound>
CS[C@H]1OC([C@H](NC(=O)[C@@H]2C[C@H](CC3CCC3)CCN2)[C@H](C)Cl)[C@H](O)[C@H](O)[C@H]1O (stereo in doubt) [Example 82]

>  <MIC>
≤ 0.125 µg/mL

$$$$

API: the following record is the query input.
Task: Quickly give me recorded MIC for CCCCC1CCN[C@H](C(=O)N[C@@H]([C@H]2O[C@H](SC)[C@H](O)[C@@H](O)[C@H]2O)[C@H](C)Cl)CC1 (stereo partly drawn) [Example 144]
Result: ≤ 0.125 µg/mL
